Molecular target: human PHD2 (Homo sapiens (Human))
Test: Test 1: human PHD2 inhibitory activity, [14C]-2-oxoglutarate to [14C]-succinic acid radiometric assay with HIF-1α peptide
Type: biochemical
Details: test compound's concentration 1 μM; Test 1, [14C]-2-oxoglutarate radiometric assay; read-out: Percent inhibition (% at 1 μM)
Short version: inhibition at 1 µM at least 60% is 1.0, less is 0.0.

Compound	Target Under Test	Assigned Label
O=C(O)CNC(=O)C1=C(O)CCN(Cc2ccc(C(F)(F)C(F)(F)F)cc2)C1=O	human PHD2 (Homo sapiens (Human))	1.0
CC1(C)CC(O)=C(C(=O)NCC(=O)O)C(=O)N1Cc1ccc(Br)cc1	human PHD2 (Homo sapiens (Human))	1.0
O=C(O)CNC(=O)C1=C(O)CCN(C2CCCCC2)C1=O	human PHD2 (Homo sapiens (Human))	0.0
CC1(C)CC(O)=C(C(=O)NCC(=O)O)C(=O)N1C[C@H]1C[C@@H](c2ccccc2)C1	human PHD2 (Homo sapiens (Human))	0.0
COc1ccc(CN2CCC(O)=C(C(=O)NCC(=O)O)C2=O)cc1	human PHD2 (Homo sapiens (Human))	1.0
O=C(O)CNC(=O)C1=C(O)CCN(Cc2ccc(-c3ccccc3)nc2)C1=O	human PHD2 (Homo sapiens (Human))	1.0
O=C(O)CNC(=O)C1=C(O)CCN(Cc2cccc(Cl)c2)C1=O	human PHD2 (Homo sapiens (Human))	1.0
O=C(O)CNC(=O)C1=C(O)C2(CCCCC2)CN(Cc2ccc(C(F)(F)F)cc2)C1=O	human PHD2 (Homo sapiens (Human))	0.0
O=C(O)CNC(=O)C1=C(O)CCN(Cc2ccc(Oc3ccc(F)cc3)cn2)C1=O	human PHD2 (Homo sapiens (Human))	1.0
Cc1ccc(CN2C(=O)C(C(=O)NCC(=O)O)=C(O)CC23CCC3)cc1	human PHD2 (Homo sapiens (Human))	1.0
O=C(O)CNC(=O)C1=C(O)CCN(Cc2ccc(Sc3ccc(Cl)cc3)nc2)C1=O	human PHD2 (Homo sapiens (Human))	1.0
CC(C)C1CN(Cc2ccc(C(F)(F)F)cc2)C(=O)C(C(=O)NCC(=O)O)=C1O (centres unmarked)	human PHD2 (Homo sapiens (Human))	1.0
CC1(C)CC(O)=C(C(=O)NCC(=O)O)C(=O)N1CC1CC(c2ccccc2)C1 (centres unmarked)	human PHD2 (Homo sapiens (Human))	0.0
CC1(C)CN(Cc2ccc(OC(F)(F)F)c(Cl)c2)C(=O)C(C(=O)NCC(=O)O)=C1O	human PHD2 (Homo sapiens (Human))	0.0
CC(C)(C)c1ccc(-c2ccc(CN3C(=O)C(C(=O)NCC(=O)O)=C(O)CC34CCOCC4)cc2)cc1	human PHD2 (Homo sapiens (Human))	0.0
O=C(O)CNC(=O)C1=C(O)CC(C(F)(F)F)N(Cc2ccc(-c3ccccc3)cc2)C1=O (centres unmarked)	human PHD2 (Homo sapiens (Human))	1.0
Cc1ccc(CN2CC(C)C(O)=C(C(=O)NCC(=O)O)C2=O)cc1 (centres unmarked)	human PHD2 (Homo sapiens (Human))	1.0

----------
Target: human PHD2 (Homo sapiens (Human), UniProt Q9GZT9)
Sequence (Q9GZT9 whole entry): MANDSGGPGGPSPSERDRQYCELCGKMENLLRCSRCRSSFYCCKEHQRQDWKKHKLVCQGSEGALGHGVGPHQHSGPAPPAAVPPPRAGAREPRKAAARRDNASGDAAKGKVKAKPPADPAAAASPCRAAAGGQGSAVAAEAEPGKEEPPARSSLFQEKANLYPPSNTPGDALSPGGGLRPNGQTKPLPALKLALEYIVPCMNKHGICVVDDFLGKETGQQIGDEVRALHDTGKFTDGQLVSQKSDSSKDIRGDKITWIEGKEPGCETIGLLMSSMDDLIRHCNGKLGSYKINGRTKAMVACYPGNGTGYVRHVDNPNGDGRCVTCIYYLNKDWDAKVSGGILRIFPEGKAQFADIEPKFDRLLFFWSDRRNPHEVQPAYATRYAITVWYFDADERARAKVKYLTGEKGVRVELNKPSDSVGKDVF
Assay: Test 2: human PHD2 inhibitory activity, fluorescence polarization assay of HIF-1α peptide proline hydroxylation
Format: biochemical
Settings: test compound's concentration 1 μM; Test 2, fluorescence polarization assay; read-out: Percent inhibition (% at 1 μM)
Readout Label: inhibition at 1 µM

Compound	Target Under Test	Readout Label	Experimental Value
O=C(O)CNC(=O)C1=C(O)CCN(Cc2ccc(Oc3ccc(F)cn3)cc2)C1=O [Ex. 1-288]	human PHD2 (Homo sapiens (Human), UniProt Q9GZT9)	inhibition at 1 µM	91%
Cc1ccc(CN2C(=O)C(C(=O)NCC(=O)O)=C(O)CC2(C)C)cc1 [Ex. 1-88]	human PHD2 (Homo sapiens (Human), UniProt Q9GZT9)	inhibition at 1 µM	55%
O=C(O)CNC(=O)C1=C(O)CCN(Cc2ccc(Cl)c(Cl)c2)C1=O [Ex. 1-67]	human PHD2 (Homo sapiens (Human), UniProt Q9GZT9)	inhibition at 1 µM	89%
CC1(C)CC(O)=C(C(=O)NCC(=O)O)C(=O)N1Cc1ccc(Cl)c(OC(F)(F)F)c1 [Ex. 1-165]	human PHD2 (Homo sapiens (Human), UniProt Q9GZT9)	inhibition at 1 µM	55%
O=C(O)CNC(=O)C1=C(O)CC2(CC2)N(Cc2ccc(-c3ccccc3)cc2)C1=O [Ex. 1-223]	human PHD2 (Homo sapiens (Human), UniProt Q9GZT9)	inhibition at 1 µM	96%
O=C(O)CNC(=O)C1=C(O)CCN(CC2CCC(Oc3ccccc3)CC2)C1=O (stereo not shown) [Ex. 1-390]	human PHD2 (Homo sapiens (Human), UniProt Q9GZT9)	inhibition at 1 µM	89%
Cc1ccc(CN2CC3(CCCCC3)C(O)=C(C(=O)NCC(=O)O)C2=O)cc1 [Ex. 1-86]	human PHD2 (Homo sapiens (Human), UniProt Q9GZT9)	inhibition at 1 µM	71%
COc1cncc(-c2ccc(CN3CCC(O)=C(C(=O)NCC(=O)O)C3=O)cc2)c1 [Ex. 2-53]	human PHD2 (Homo sapiens (Human), UniProt Q9GZT9)	inhibition at 1 µM	97%
NC(=O)[C@@H]1CC(O)=C(C(=O)NCC(=O)O)C(=O)N1Cc1ccc(OCC2CC2)cc1 [Ex. 6-16]	human PHD2 (Homo sapiens (Human), UniProt Q9GZT9)	inhibition at 1 µM	26%
O=C(O)CNC(=O)C1=C(O)CCN(c2ccccc2)C1=O [Ex. 1-38]	human PHD2 (Homo sapiens (Human), UniProt Q9GZT9)	inhibition at 1 µM	66%
CN(C)C[C@@H]1CC(O)=C(C(=O)NCC(=O)O)C(=O)N1Cc1ccc(OCC2CC2)cc1 [Ex. 6-36]	human PHD2 (Homo sapiens (Human), UniProt Q9GZT9)	inhibition at 1 µM	30%
O=C(O)CNC(=O)C1=C(O)CCN(C[C@H]2CC[C@H](Oc3ccc(C(F)(F)F)cc3)CC2)C1=O [Ex. 1-403]	human PHD2 (Homo sapiens (Human), UniProt Q9GZT9)	inhibition at 1 µM	102%
O=C(O)CNC(=O)C1=C(O)CCN(C[C@H]2CC[C@H](OCCc3ccccc3)CC2)C1=O [Ex. 1-447]	human PHD2 (Homo sapiens (Human), UniProt Q9GZT9)	inhibition at 1 µM	98%
COc1cccc(Oc2ccc(CN3CCC(O)=C(C(=O)NCC(=O)O)C3=O)cc2)c1 [Ex. 1-286]	human PHD2 (Homo sapiens (Human), UniProt Q9GZT9)	inhibition at 1 µM	96%
CC1(C)CC(O)=C(C(=O)NCC(=O)O)C(=O)N1Cc1ccc(OCC(N)=O)cc1 [Ex. 6-25]	human PHD2 (Homo sapiens (Human), UniProt Q9GZT9)	inhibition at 1 µM	49%
Cc1nc(COc2ccc(CN3CCC(O)=C(C(=O)NCC(=O)O)C3=O)cc2Cl)c(C)o1 [Ex. 1-394]	human PHD2 (Homo sapiens (Human), UniProt Q9GZT9)	inhibition at 1 µM	83%
CC1(C)CC(O)=C(C(=O)NCC(=O)O)C(=O)N1Cc1ccc(C(F)(F)F)c(OC(F)F)c1 [Ex. 1-192]	human PHD2 (Homo sapiens (Human), UniProt Q9GZT9)	inhibition at 1 µM	49%
O=C(O)CNC(=O)C1=C(O)CC2(CC2)N(Cc2ccc(OCC3CC3)cc2)C1=O [Ex. 1-251]	human PHD2 (Homo sapiens (Human), UniProt Q9GZT9)	inhibition at 1 µM	83%
COc1ncc(-c2ccc(CN3CCC(O)=C(C(=O)NCC(=O)O)C3=O)cc2)s1 [Ex. 2-42]	human PHD2 (Homo sapiens (Human), UniProt Q9GZT9)	inhibition at 1 µM	96%
O=C(O)CNC(=O)C1=C(O)CCN(Cc2cnc(C(F)(F)F)nc2)C1=O [Ex. 1-338]	human PHD2 (Homo sapiens (Human), UniProt Q9GZT9)	inhibition at 1 µM	71%
CN(C)CCNC(=O)c1ccc(CN2CCC(O)=C(C(=O)NCC(=O)O)C2=O)cc1 [Ex. 1-345]	human PHD2 (Homo sapiens (Human), UniProt Q9GZT9)	inhibition at 1 µM	55%
O=C(O)CNC(=O)C1=C(O)C2(CCC2)CN(CC2CCC(c3ccccc3)CC2)C1=O (stereo not shown) [Ex. 1-114]	human PHD2 (Homo sapiens (Human), UniProt Q9GZT9)	inhibition at 1 µM	83%
O=C(O)CNC(=O)C1=C(O)CCN(Cc2ccc(C(=O)N3CCCCC3)cc2)C1=O [Ex. 1-321]	human PHD2 (Homo sapiens (Human), UniProt Q9GZT9)	inhibition at 1 µM	84%
O=C(O)CNC(=O)C1=C(O)CCN(Cc2cncnc2)C1=O [Ex. 1-320]	human PHD2 (Homo sapiens (Human), UniProt Q9GZT9)	inhibition at 1 µM	57%
Cc1cc(CN2CCC(O)=C(C(=O)NCC(=O)O)C2=O)cnc1Oc1ccc(Cl)cc1 [Ex. 1-409]	human PHD2 (Homo sapiens (Human), UniProt Q9GZT9)	inhibition at 1 µM	98%
COc1cccnc1-c1ccc(CN2CCC(O)=C(C(=O)NCC(=O)O)C2=O)cc1 [Ex. 1-425]	human PHD2 (Homo sapiens (Human), UniProt Q9GZT9)	inhibition at 1 µM	90%
O=C(O)CNC(=O)C1=C(O)CCN(C[C@H]2CC[C@H](Oc3ccc(F)cc3)CC2)C1=O [Ex. 1-402]	human PHD2 (Homo sapiens (Human), UniProt Q9GZT9)	inhibition at 1 µM	109%
CC(C)c1cccc(-c2ccc(CN3CCC(O)=C(C(=O)NCC(=O)O)C3=O)cc2)c1 [Ex. 2-9]	human PHD2 (Homo sapiens (Human), UniProt Q9GZT9)	inhibition at 1 µM	82%
O=C(O)CNC(=O)C1=C(O)CC2(COC2)N(Cc2ccc(-c3ccccc3)cc2)C1=O [Ex. 1-2]	human PHD2 (Homo sapiens (Human), UniProt Q9GZT9)	inhibition at 1 µM	92%
CC1(C)CC(O)=C(C(=O)NCC(=O)O)C(=O)N1Cc1ccc(OC(F)F)cc1 [Ex. 1-161]	human PHD2 (Homo sapiens (Human), UniProt Q9GZT9)	inhibition at 1 µM	62%
CC(C)(CN1CCC(O)=C(C(=O)NCC(=O)O)C1=O)c1ccc(Cl)cc1 [Ex. 1-413]	human PHD2 (Homo sapiens (Human), UniProt Q9GZT9)	inhibition at 1 µM	75%
C=CCOc1ccc(CN2CCC(O)=C(C(=O)NCC(=O)O)C2=O)cc1 [Ex. 4-2]	human PHD2 (Homo sapiens (Human), UniProt Q9GZT9)	inhibition at 1 µM	81%
CC1CC(O)=C(C(=O)NCC(=O)O)C(=O)N1Cc1ccc(Cl)cc1 (stereo not shown) [Ex. 1-171]	human PHD2 (Homo sapiens (Human), UniProt Q9GZT9)	inhibition at 1 µM	82%
O=C(O)CNC(=O)C1=C(O)CCN(Cc2ccc(C3CCC3)c(C(F)(F)F)c2)C1=O [Ex. 1-243]	human PHD2 (Homo sapiens (Human), UniProt Q9GZT9)	inhibition at 1 µM	92%
